measured.target: T1, CD123 (Homo sapiens (Human), UniProt P26951 19-305, limits assumed)
T1 construct: The CD123 construct used in the ELISA is not described; also called CD123-Signal
T1 sequence: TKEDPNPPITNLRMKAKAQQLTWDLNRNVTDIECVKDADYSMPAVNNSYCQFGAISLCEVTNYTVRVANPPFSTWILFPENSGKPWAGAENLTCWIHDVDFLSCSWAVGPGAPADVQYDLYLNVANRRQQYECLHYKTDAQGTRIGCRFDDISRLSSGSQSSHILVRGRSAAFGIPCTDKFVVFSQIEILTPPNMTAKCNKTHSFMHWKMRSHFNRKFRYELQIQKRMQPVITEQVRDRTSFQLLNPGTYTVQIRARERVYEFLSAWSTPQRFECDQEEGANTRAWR
procedure.text: ELISA
Design: unit not given here
Threshold check on ELISA_avg: strictly below 5 is fulfilled; on or above 5 is not fulfilled.

INSERT INTO measurements (binder, group) VALUES
  ('D domain of SEQ ID NO: 397 (designed binder) MGSWVEFDQRLDAIYERLYALGGSEAELAAFEKEIAAFESELQAYKGKGNPEVEWLRDEAAEIREHLQAYRHN', 'not fulfilled'),
  ('D domain of SEQ ID NO: 532 (designed binder) MGSWYQFKHDLADIKYGLEALGGSEAELAWFEDDIADFELDLQYYKGKGNPEVEALRKEAAAIRDELQAYRHN', 'fulfilled'),
  ('D domain of SEQ ID NO: 630 (designed binder) MGSWWEFDSRLDAIDFRLWALGGSEAELAWFEVEIADFEDWLQLYKGKGNPEVEALWHEADAIVTELYAYRHN', 'fulfilled');

Now look at this entry.
Prompt line: Lab note: confirm whether the reported ELISA_avg for this binder is below 5, equality not counting. binder: D domain of SEQ ID NO: 586 (designed binder) MGSWEEFYMRLVAIHMRLRALGGSEAELAVFENYIAEFEEYLQYYKGKGNPEVEALTIEADAIGTELGAYRHN
Response line: fulfilled
